Where do the numbers come from? From patent US6172099A.

Measurement Target: human β3 (Homo sapiens, UniProt P13945)
Construct: inserted the 1st exon of human β3 gene was transfected
Sequence (P13945 1-402 limits assumed): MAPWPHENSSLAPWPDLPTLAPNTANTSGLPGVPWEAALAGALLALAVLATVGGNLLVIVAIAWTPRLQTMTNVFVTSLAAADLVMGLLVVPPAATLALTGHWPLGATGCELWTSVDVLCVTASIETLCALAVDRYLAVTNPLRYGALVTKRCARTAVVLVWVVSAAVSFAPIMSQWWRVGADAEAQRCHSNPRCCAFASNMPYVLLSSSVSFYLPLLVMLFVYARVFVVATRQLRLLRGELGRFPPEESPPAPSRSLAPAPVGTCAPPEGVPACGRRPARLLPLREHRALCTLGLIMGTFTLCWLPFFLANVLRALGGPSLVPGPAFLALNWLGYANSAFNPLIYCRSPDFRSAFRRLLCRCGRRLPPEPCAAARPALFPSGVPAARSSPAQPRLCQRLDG
Method Summary: Human β3-agonist activity (cAMP accumulation in CHO cells transfected with human β3 gene)
Experimental Parameters: CHO cells expressing human β3, cAMP, 30 minutes; read-out: ED50 (the source's name)
Counter-ions that a name gives are not always drawn.
Threshold 30 nM. EC50 below it: 1 (yes). EC50 at it or above: 0 (no).

Task item: Field: below-cutoff. Rule: recorded EC50 strictly less than 30 nM. Subject: CS(=O)(=O)Nc1cc([C@@H](O)CNCCOc2ccc3c4c([nH]c3c2)CCCC4)ccc1F [Example 9, hydrochloride]
Reply: 1 (yes)

Task item: Hello, is EC50 of the following compound strictly smaller than 30 nM? CN(C)S(=O)(=O)Nc1cc([C@@H](O)CNCCOc2ccc3c4c(oc3c2)CCCC4)ccc1O [Example 22, hydrochloride]
Reply: 1 (yes)

Task item: Does CS(=O)(=O)Nc1cccc(C(O)CNCCOc2ccc3c4c([nH]c3c2)CCCC4)c1 (racemic) [Example 17, hydrochloride] have EC50 strictly under 30 nM?
Reply: 0 (no)

Task item: Say whether its EC50 is strictly beneath 30 nM. Entry: CS(=O)(=O)Nc1cc(C(O)CNCCOc2ccc3c4c([nH]c3c2)CCCC4)ccc1Cl (racemic) [Example 14, hydrochloride]
Reply: 1 (yes)

Next:
Task item: Decide: EC50 of CS(=O)(=O)Nc1cc([C@@H](O)CNCCOc2ccc3c4c(sc3c2)CCCC4)ccc1O [Example 28, hydrochloride] strictly below 30 nM?
Reply: 1 (yes)

Task item: A record lists CS(=O)(=O)Nc1cc([C@@H](O)CNCCOc2ccc3c4c([nH]c3c2)CCCC4)ccc1Br [Example 15, hydrochloride] . Is its EC50 below 30 nM?
Reply: 0 (no)

Task item: Strictly below 30 nM in EC50? CN(C)S(=O)(=O)Nc1cc([C@@H](O)CNCCOc2ccc3c4c([nH]c3c2)CCCC4)ccc1O.Cl [Example 2, hydrochloride]
Reply: 1 (yes)

###

For each record, write down the corresponding Emax.
Measurement Target: human β3 (Homo sapiens, UniProt P13945)
Construct: inserted the 1st exon of human β3 gene was transfected; expressed in transfected cells; host or cells: CHO cells (Chinese hamster ovary), pcDNA3 vector
Method Summary: Human β3-agonist activity (cAMP accumulation in CHO cells transfected with human β3 gene)
Format: cell-based
Experimental Parameters: CHO, read-out: Intrinsic activity(%)
Where a name gives a salt, the structure may show the parent alone.
Write the numeric value and append its unit.

Use the examples below as a reference point.
Task item: // Emax lookup, key: CS(=O)(=O)Nc1cc(C(O)CNCCOc2ccc3c4c([nH]c3c2)CCCC4)ccc1Cl (racemic) [Example 14, hydrochloride]
Reply: 62%

Task item: Value lookup for Emax; key = CS(=O)(=O)Nc1cccc(C(O)CNCCOc2ccc3c4c([nH]c3c2)CCCC4)c1 (racemic) [Example 17, hydrochloride]
Reply: 78%

Task item: # input compound: CS(=O)(=O)Nc1cc([C@@H](O)CNCCOc2ccc3c4c(oc3c2)CCCC4)ccc1O [Example 26, hydrochloride] ; wanted: its Emax
Reply: 111%

Task item: Please look up its Emax: CS(=O)(=O)Nc1cc([C@@H](O)CNCCOc2ccc3c4c([nH]c3c2)CCCC4)ccc1F [Example 9, hydrochloride]
Reply: 47%

Task item: For the compound shown here, CN(C)S(=O)(=O)Nc1cc([C@@H](O)CNCCOc2ccc3c4c([nH]c3c2)CCCC4)ccc1O.Cl [Example 2, hydrochloride] , give the reported Emax.
Reply: 63%

Task item: Requested read-out: Emax. Entry: CS(=O)(=O)Nc1cc([C@@H](O)CNCCOc2ccc3c4c([nH]c3c2)CCCC4)ccc1O [Example 6, hydrochloride]
Reply: 84%

// batch mode: one Emax value per listed entry
1. CS(=O)(=O)Nc1cc([C@@H](O)CNCCOc2ccc3c4c([nH]c3c2)CCCC4)ccc1OCc1ccccc1 [Example 5, hydrochloride]
2. CS(=O)(=O)Nc1cc([C@@H](O)CNCCOc2ccc3c4c([nH]c3c2)CCCC4)ccc1Br [Example 15, hydrochloride]
3. CS(=O)(=O)Nc1cc([C@@H](O)CNCCOc2ccc3c4c(sc3c2)CCCC4)ccc1O [Example 28, hydrochloride]
4. CN(C)S(=O)(=O)Nc1cc([C@@H](O)CNCCOc2ccc3c4c(oc3c2)CCCC4)ccc1O [Example 22, hydrochloride]

Reply:
["101%", "72%", "96%", "84%"]

###

For each entry below, report its EC50 value.
Measurement Target: human β3 (Homo sapiens, UniProt P13945)
Construct: inserted the 1st exon of human β3 gene was transfected
Method Summary: Human β3-agonist activity (cAMP accumulation in CHO cells transfected with human β3 gene)
Experimental Parameters: CHO cells expressing human β3, cAMP, 30 minutes; read-out: ED50 (the source's name)
Where a name gives a salt, the structure may show the parent alone.
Give the value; after it, write the unit.

These recorded examples may help you get a feel for the data.
Task item: Requested read-out: EC50. Entry: CS(=O)(=O)Nc1cc([C@@H](O)CNCCOc2ccc3c4c(oc3c2)CCCC4)ccc1O [Example 26, hydrochloride]
Reply: 31 nM

Task item: Param item = CS(=O)(=O)Nc1cc([C@@H](O)CNCCOc2ccc3c4c([nH]c3c2)CCCC4)ccc1O [Example 6, hydrochloride] ; retrieve measured EC50.
Reply: 0.021 nM

Okay, now this molecule:
Task item: Reported EC50, molecule CS(=O)(=O)Nc1cc([C@@H](O)CNCCOc2ccc3c4c([nH]c3c2)CCCC4)ccc1OCc1ccccc1 [Example 5, hydrochloride] : ____
Reply: 570 nM

###

System: rat adipocytes
Method Summary: Lipolytic activity in rat adipocytes (glycerol concentration)
Format: cell-based
Experimental Parameters: Rattus norvegicus, Adipocyte, 1 h; read-out: Intrinsic activity(%)
Structures can show the parent of a compound that is named as a salt.
Can you tell me Emax for the items I'm about to list?
Numbers only, in %.

Examples with their reported Emax follow.
Task item: Consider the molecule shown here: CN(C)S(=O)(=O)Nc1cc([C@@H](O)CNCCOc2ccc3c4c([nH]c3c2)CCCC4)ccc1O.Cl [Example 2, hydrochloride] What is its recorded Emax?
Reply: 127

Task item: # input molecule: CS(=O)(=O)Nc1cc([C@@H](O)CNCCOc2ccc3c4c([nH]c3c2)CCCC4)ccc1O [Example 6, hydrochloride] ; wanted: its Emax
Reply: 132

Task item: Which value of Emax has been reported for CS(=O)(=O)Nc1cc([C@@H](O)CNCCOc2ccc3c4c(oc3c2)CCCC4)ccc1O [Example 26, hydrochloride] in the records?
Reply: 118

Task item: What measured Emax goes with CC(C)NCC(O)c1ccc(O)c(O)c1 (centres unmarked) [isoproterenol, reference compound] ?
Reply: 100

Please examine the following record next.
Task item: Look up Emax: CS(=O)(=O)Nc1cc([C@@H](O)CNCCOc2ccc3c4c(sc3c2)CCCC4)ccc1O [Example 28, hydrochloride]
Reply: 140
